Each entry below carries its reported Population Mitochondria Different-Phenotype (%).
# Tested on: HEK-293T
# EXPERIMENT DESCRIPTION: Multiplex assay against HEK293T
# Type: toxicity, cell-based
# MEASUREMENT SETUP: human, 12 h, 10 µM, compound concentration 10 uM, replicate 2

Use these answered entries as a reference point.
COMPOUND: CNC[C@H](O)c1ccc(O)c(O)c1 [EPINEPHRINE]
READOUT VALUE: 62%
--
COMPOUND: Cc1ccc(F)cc1C(=O)Nc1ccc(C(=O)N2Cc3cccn3Cc3ccccc32)c(Cl)c1
READOUT VALUE: 81%
--
COMPOUND: CC(=O)NCCc1c(Cc2ccccc2)[nH]c2ccccc12
READOUT VALUE: 72%
--
COMPOUND: c1cc(OCCCN2CCCCC2)ccc1CN1CCCCC1
READOUT VALUE: 69%
--
COMPOUND: CC(C)(C)c1ccc(S(=O)(=O)Nc2ccc(Cl)cc2C(=O)c2cc[n+]([O-])cc2)cc1
READOUT VALUE: 51%
--
COMPOUND: COc1cc(NC(=O)CCN2CCC(OC(=O)Nc3ccccc3-c3ccccc3)CC2)c(Cl)cc1CNC[C@H](O)c1ccc(O)c2[nH]c(=O)ccc12
READOUT VALUE: 87%
--
COMPOUND: O=C(O)c1cc2ccccc2c(Cc2c(O)c(C(=O)O)cc3ccccc23)c1O
READOUT VALUE: 55%
--
COMPOUND: O=C(O)Cc1ccccc1Nc1c(Cl)cccc1Cl
READOUT VALUE: 68%

Request: Requested field: Population Mitochondria Different-Phenotype (%). Item: N#Cc1c(N)nc(SCc2csc(-c3ccc(Cl)cc3)n2)c(C#N)c1-c1ccc(OCCO)cc1
Response: 85%

Request: Requested field: Population Mitochondria Different-Phenotype (%). Item: COc1cc(C(=O)N(CCCc2ccccc2)Cc2ccc(CC(=O)O)cc2)cc(OC)c1C
Response: 67%

Request: Requested field: Population Mitochondria Different-Phenotype (%). Item: Cc1ccc(C(C)(O)c2nc3ccccc3s2)c(C)c1 (stereo not drawn)
Response: 72%

Request: Requested field: Population Mitochondria Different-Phenotype (%). Item: Cc1ccccc1C(=O)Nc1ccc(C(=O)N2CCCC(N(C)C)c3ccccc32)cc1.Cl (stereo not drawn)
Response: 82%

Request: Requested field: Population Mitochondria Different-Phenotype (%). Item: C[C@H](NC(=O)c1c(C(F)F)nn(C)c1Oc1cccc(C(F)(F)F)c1)c1ccc(C(=O)O)cc1
Response: 68%

Request: Requested field: Population Mitochondria Different-Phenotype (%). Item: Cl.Clc1ccc2nsnc2c1NC1=NCCN1 [TIZANIDINE HYDROCHLORIDE]
Response: 67%

Request: Requested field: Population Mitochondria Different-Phenotype (%). Item: Oc1c(CN2CCN(c3ccccn3)CC2)cc(Cl)c2cccnc12
Response: 70%

###

# System: Fibroblast
# EXPERIMENT DESCRIPTION: Multiplex assay against human fibroblast
# Format: toxicity, cell-based
# MEASUREMENT SETUP: 48 h, 1 µM, compound concentration 1 uM, replicate 2
VALUE TYPE: Population Apoptotic (%)
The reply should contain only the number, in %.

Use these answered entries as a reference point.
MOLECULE: CNC[C@H](O)c1ccc(O)c(O)c1 [EPINEPHRINE]
Population Apoptotic (%): 38
//
MOLECULE: CCCC(CCC)C(=O)O [VALPROIC ACID]
Population Apoptotic (%): 48

Request: Requested field: Population Apoptotic (%). Item: CC(=O)NCCc1c(Cc2ccccc2)[nH]c2ccccc12 [LUZINDOLE]
Response: 39

Request: Requested field: Population Apoptotic (%). Item: CSc1ccccc1N1CCN(CCCCCC(=O)NC2CCCc3ccccc32)CC1.Cl (stereo not given)
Response: 44

Request: Requested field: Population Apoptotic (%). Item: COc1ccc2c(c1)C(C(=O)N(Cc1ccc(N(C)C)cc1)c1ccc(C(C)C)cc1)CCC2.Cl (stereo not given)
Response: 52

Request: Requested field: Population Apoptotic (%). Item: CN(C)CCCc1cc(C(=O)Nc2ccc(-c3ccncc3)cc2)ccc1O.Cl.Cl
Response: 50

Request: Requested field: Population Apoptotic (%). Item: Cc1ccc(F)cc1C(=O)Nc1ccc(C(=O)N2Cc3cccn3Cc3ccccc32)c(Cl)c1 [LIXIVAPTAN]
Response: 50

Request: Requested field: Population Apoptotic (%). Item: O=C(NCCO)c1cccc(-c2cc(Nc3ccc(OC(F)(F)F)cc3)ncn2)c1
Response: 45

Request: Requested field: Population Apoptotic (%). Item: COc1cc(C(=O)N(CCCc2ccccc2)Cc2ccc(CC(=O)O)cc2)cc(OC)c1C
Response: 52

Request: Requested field: Population Apoptotic (%). Item: c1cc(OCCCN2CCCCC2)ccc1CN1CCCCC1 [JNJ-5207852]
Response: 44

###

# System: HEK-293T
# EXPERIMENT DESCRIPTION: Multiplex assay against HEK293T
# Format: toxicity, cell-based
# MEASUREMENT SETUP: human, 12 h, 10 µM, compound concentration 10 uM, replicate 2
VALUE TYPE: Population Mitotic Cells (%)
The reply should contain only the number, in %.

Use these answered entries as a reference point.
MOLECULE: O=C(NCC(=O)N1CC[C@H](N[C@H]2CC[C@@](O)(c3ccc(-c4ncccn4)cn3)CC2)C1)c1cccc(C(F)(F)F)c1
UNIT TAG: %
READOUT VALUE: 51
--
MOLECULE: COc1cc(NC(=O)CCN2CCC(OC(=O)Nc3ccccc3-c3ccccc3)CC2)c(Cl)cc1CNC[C@H](O)c1ccc(O)c2[nH]c(=O)ccc12
UNIT TAG: %
READOUT VALUE: 47
--
MOLECULE: CCCn1c(=O)c2[nH]c(C3CCCC3)nc2n(CCC)c1=O
UNIT TAG: %
READOUT VALUE: 45
--
MOLECULE: Cl.Clc1ccc2nsnc2c1NC1=NCCN1 [TIZANIDINE HYDROCHLORIDE]
UNIT TAG: %
READOUT VALUE: 53
--
MOLECULE: C[C@H]1[C@H]2CC[C@H]3[C@@H]4CC=C5C[C@@H](N(C)C)CC[C@]5(C)[C@H]4CC[C@]23CN1C
UNIT TAG: %
READOUT VALUE: 40

Request: Requested field: Population Mitotic Cells (%). Item: O=C(NCCO)c1cccc(-c2cc(Nc3ccc(OC(F)(F)F)cc3)ncn2)c1
Response: 36

Request: Requested field: Population Mitotic Cells (%). Item: O=C(O)c1cc2ccccc2c(Cc2c(O)c(C(=O)O)cc3ccccc23)c1O
Response: 47

Request: Requested field: Population Mitotic Cells (%). Item: COc1cc(C(=O)N(CCCc2ccccc2)Cc2ccc(CC(=O)O)cc2)cc(OC)c1C
Response: 52

###

# System: HEK-293T
# EXPERIMENT DESCRIPTION: Multiplex assay against HEK293T
# Assay type: toxicity, cell-based
# MEASUREMENT SETUP: human, 48 h, 1 µM, compound concentration 1 uM, replicate 1
Each entry below carries its reported Population Fragmented Nuclei (%).
The reply should contain only the number, in %.

MOLECULE: Cc1ccccc1C(=O)Nc1ccc(C(=O)N2CCCC(N(C)C)c3ccccc32)cc1.Cl (configuration not stated)
ASSAYED TARGET: HEK-293T
READOUT VALUE: 13

MOLECULE: CC(=O)NCCc1c(Cc2ccccc2)[nH]c2ccccc12
ASSAYED TARGET: HEK-293T
READOUT VALUE: 16

Request: Requested field: Population Fragmented Nuclei (%). Item: CN1CCN(c2nc3cc(C(F)(F)F)ccc3n3cccc23)CC1.O=C(O)/C=C\C(=O)O.O=C(O)/C=C\C(=O)O
Response: 13

Request: Requested field: Population Fragmented Nuclei (%). Item: Cc1ccc(F)cc1C(=O)Nc1ccc(C(=O)N2Cc3cccn3Cc3ccccc32)c(Cl)c1
Response: 12

Request: Requested field: Population Fragmented Nuclei (%). Item: O=C1COc2nccc(-c3ccccc3F)c2CN1Cc1cc(C(F)(F)F)cc(C(F)(F)F)c1
Response: 13

Request: Requested field: Population Fragmented Nuclei (%). Item: Cc1ccc(-c2ccc(F)cc2COc2ccc(CCC(=O)O)cc2)cc1
Response: 15

Request: Requested field: Population Fragmented Nuclei (%). Item: COc1cc(NC(=O)CCN2CCC(OC(=O)Nc3ccccc3-c3ccccc3)CC2)c(Cl)cc1CNC[C@H](O)c1ccc(O)c2[nH]c(=O)ccc12
Response: 15

Request: Requested field: Population Fragmented Nuclei (%). Item: O=C(NCC(=O)N1CC[C@H](N[C@H]2CC[C@@](O)(c3ccc(-c4ncccn4)cn3)CC2)C1)c1cccc(C(F)(F)F)c1
Response: 16

Request: Requested field: Population Fragmented Nuclei (%). Item: CC1(COc2ccc3c(c2)ncn3-c2ccc3cccc(N4CCC(N)CC4)c3n2)COC1
Response: 19

Request: Requested field: Population Fragmented Nuclei (%). Item: N[C@@]1(C(=O)O)CO[C@H]2[C@H](C(=O)O)[C@H]21
Response: 13

Request: Requested field: Population Fragmented Nuclei (%). Item: Cc1nc2ccc(Oc3ccc(F)cc3)cc2c(=O)n1C[C@H]1CCCN(C(C)C)C1.Cl
Response: 19

Request: Requested field: Population Fragmented Nuclei (%). Item: Cc1ccc(/C(=C\CN2CCCC2)c2ccccn2)cc1
Response: 14

Request: Requested field: Population Fragmented Nuclei (%). Item: CCOc1c2c(c(OCC)c3ncccc13)CN(c1ccc(CS(=O)(=O)NC(=O)Cc3ccccc3OC)cc1C)C2=O
Response: 13

Request: Requested field: Population Fragmented Nuclei (%). Item: C[C@H]1[C@H]2CC[C@H]3[C@@H]4CC=C5C[C@@H](N(C)C)CC[C@]5(C)[C@H]4CC[C@]23CN1C
Response: 9

Request: Requested field: Population Fragmented Nuclei (%). Item: O=C(O)Cc1ccccc1Nc1c(Cl)cccc1Cl
Response: 11

Request: Requested field: Population Fragmented Nuclei (%). Item: C[C@@H]1C[C@H]2[C@@H]3CCC4=CC(=O)C=C[C@]4(C)[C@@]3(F)[C@@H](O)C[C@]2(C)[C@@]1(O)C(=O)CO
Response: 15

Request: Requested field: Population Fragmented Nuclei (%). Item: c1cc(OCCCN2CCCCC2)ccc1CN1CCCCC1
Response: 14
